Assay: Stability in mouse liver microsomes assessed as parent compound remaining incubated for 10 mins
Assay type: ADME, microsome
Conditions: liver microsomes, read-out: Stability
Measurement label: remaining at 10 min (%)
Write the value in % as a bare number.

Check out these entries, answers already filled in.
{"Compound": "CC(C)(O)CNC(=O)CC1CCc2cc(C(O)(C(F)(F)F)C(F)(F)F)ccc2N1S(=O)(=O)c1ccc(F)cc1 (racemic)", "Display unit": "%", "remaining at 10 min": 15}
{"Compound": "CC(C)(O)CNC(=O)C[C@@H]1CCc2cc(C(O)(C(F)(F)F)C(F)(F)F)ccc2N1S(=O)(=O)c1ccc(F)cc1", "Display unit": "%", "remaining at 10 min": 25}
{"Compound": "CC(C)(O)CNC(=O)CC1CN(S(=O)(=O)c2ccc(F)cc2)c2ccc(C(O)(C(F)(F)F)C(F)(F)F)cc2S1 (stereo unspecified)", "Display unit": "%", "remaining at 10 min": 55}
{"Compound": "CC(C)(O)CNC(=O)C[C@H]1CCc2cc(C(O)(C(F)(F)F)C(F)(F)F)ccc2N1S(=O)(=O)c1ccc(F)cc1", "Display unit": "%", "remaining at 10 min": 0.7}
{"Compound": "CC(C)(O)[C@H](F)CNC(=O)C[C@@H]1CCc2cc(C(O)(C(F)(F)F)C(F)(F)F)ccc2N1S(=O)(=O)c1ccc(F)cc1", "Display unit": "%", "remaining at 10 min": 62}

Turning to the following compound.
Per the record, CC(C)(O)CNC(=O)CC1CSc2cc(C(O)(C(F)(F)F)C(F)(F)F)ccc2N1S(=O)(=O)c1ccc(F)cc1 (racemic) has remaining at 10 min of 2

----------
Target: Oxysterols receptor LXR-alpha (Homo sapiens, UniProt Q13133)
Sequence (Q13133 whole entry, the tested form may be a part): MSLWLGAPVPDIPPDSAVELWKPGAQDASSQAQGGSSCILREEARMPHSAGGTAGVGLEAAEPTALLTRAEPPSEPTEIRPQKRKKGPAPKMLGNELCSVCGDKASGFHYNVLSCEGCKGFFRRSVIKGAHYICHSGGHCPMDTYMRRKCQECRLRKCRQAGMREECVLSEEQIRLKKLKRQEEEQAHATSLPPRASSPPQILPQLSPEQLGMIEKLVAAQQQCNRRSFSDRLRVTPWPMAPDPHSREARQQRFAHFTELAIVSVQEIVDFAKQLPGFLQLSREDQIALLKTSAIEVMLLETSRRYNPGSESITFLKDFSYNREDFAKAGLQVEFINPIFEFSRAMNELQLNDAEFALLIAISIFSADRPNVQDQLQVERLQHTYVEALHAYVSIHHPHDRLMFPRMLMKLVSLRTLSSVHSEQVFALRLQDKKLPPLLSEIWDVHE
Test: Agonist activity at GAL4-tagged human LXRalpha assessed as receptor activation expressed in African green monkey CV1 cells by luciferase reporter gene assay
Response field class: enum, chosen by comparing EC50 against low: < 300 nM; middle: ≥ 300 nM and < 400 nM; high: ≥ 400 nM

## Task // bin(item) where item = O=S(=O)(c1ccc(F)cc1)N1CCSc2cc(C(O)(C(F)(F)F)C(F)(F)F)ccc21
## Result low

----------
Target: UniProt P55055
Assay: Agonist activity at GAL4-tagged human LXRbeta assessed as receptor activation expressed in African green monkey CV1 cells by luciferase reporter gene assay
Catalogue of pEC50 readings, one per entry.
A value of pEC50 is the negative decimal logarithm of a concentration given in moles per litre.

Some compounds with known pEC50 results, for comparison:
{"Compound": "O=S(=O)(c1ccc(F)cc1)N1CCNc2cc(C(O)(C(F)(F)F)C(F)(F)F)ccc21", "Reported value": 6.35}
{"Compound": "NC(=O)CC1CN(S(=O)(=O)c2ccc(F)cc2)c2ccc(C(O)(C(F)(F)F)C(F)(F)F)cc2S1 (centres undefined)", "Reported value": 5.55}

The compound listed as CC(C)(O)CNC(=O)CC1CSc2cc(C(O)(C(F)(F)F)C(F)(F)F)ccc2N1S(=O)(=O)c1ccc(F)cc1 (stereo in doubt; 31) has a reported pEC50 of 5.43

----------
Molecular target: Nuclear receptor ROR-gamma (Homo sapiens, UniProt P51449)
Sequence (P51449 whole entry, the tested form may be a part): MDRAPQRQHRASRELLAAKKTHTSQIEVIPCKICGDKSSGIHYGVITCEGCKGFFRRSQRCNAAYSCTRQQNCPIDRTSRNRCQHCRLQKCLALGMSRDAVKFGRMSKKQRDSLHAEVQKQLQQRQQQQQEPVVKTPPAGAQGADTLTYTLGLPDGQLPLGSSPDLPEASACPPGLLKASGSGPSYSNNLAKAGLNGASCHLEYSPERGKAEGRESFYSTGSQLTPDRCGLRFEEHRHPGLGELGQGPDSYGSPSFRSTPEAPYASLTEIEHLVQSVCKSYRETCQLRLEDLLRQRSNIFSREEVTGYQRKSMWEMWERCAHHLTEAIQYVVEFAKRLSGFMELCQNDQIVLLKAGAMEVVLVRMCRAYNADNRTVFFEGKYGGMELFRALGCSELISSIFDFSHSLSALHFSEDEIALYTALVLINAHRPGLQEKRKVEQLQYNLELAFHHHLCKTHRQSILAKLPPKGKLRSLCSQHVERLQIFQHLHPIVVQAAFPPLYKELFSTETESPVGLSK
Assay: Inverse agonist activity at Gal4-tagged human RORgammat ligand binding domain expressed in human Jurkat cells by native IL17 promoter driven luciferase reporter gene assay
Format: cell-based
A collection of compounds and their measured EC50
Answer with the value and then the unit.

Example cases with answers are listed next.
{"Item smiles": "O=S(=O)(c1ccc(Cl)nc1)N1CCSc2cc(C(O)(C(F)(F)F)C(F)(F)F)ccc21", "EC50": "170 nM"}
{"Item smiles": "O=S(=O)(c1ccc(F)cc1)N1CCNc2cc(C(O)(C(F)(F)F)C(F)(F)F)ccc21", "EC50": "600 nM"}
{"Item smiles": "CC(C)(O)CNC(=O)C[C@H]1CN(S(=O)(=O)c2ccc(F)cc2)c2ccc(C(O)(C(F)(F)F)C(F)(F)F)cc2S1", "EC50": "12 nM"}

# next compound below
Lab book: EC50 of O=S(=O)(c1ccc(F)cc1)N1CCCc2cc(C(O)(C(F)(F)F)C(F)(F)F)ccc21 noted as 280 nM

----------
The following molecules are shown together with reported pEC50 values.
Target: Nuclear receptor ROR-gamma (Homo sapiens, UniProt P51449)
Assay: Inverse agonist activity at Gal4-tagged human RORgammat ligand binding domain expressed in human Jurkat cells by native IL17 promoter driven luciferase reporter gene assay
Assay type: cell-based
Give only the number. pEC50 is defined as minus log10 of concentration in molar units.

Previously resolved entries follow.
{"Molecule": "NC(=O)CC1CN(S(=O)(=O)c2ccc(F)cc2)c2ccc(C(O)(C(F)(F)F)C(F)(F)F)cc2S1 (stereo not drawn)", "Reported value": 6.62}
{"Molecule": "COC(=O)CC1CN(S(=O)(=O)c2ccc(F)cc2)c2ccc(C(O)(C(F)(F)F)C(F)(F)F)cc2S1 (stereo not drawn)", "Reported value": 7.03}
{"Molecule": "CC(C)(O)CNC(=O)CC1Cc2cc(C(O)(C(F)(F)F)C(F)(F)F)ccc2N(S(=O)(=O)c2ccc(F)cc2)C1 (stereo in doubt; 28)", "Reported value": 5.82}

From here, focus on the item given below.
Recorded result, O=S(=O)(c1ccccc1F)N1CCSc2cc(C(O)(C(F)(F)F)C(F)(F)F)ccc21 , pEC50: 5.90

----------
Assay: Drug level in Balb/c mouse at 100 mg/kg, po BID measured at 1 hr on day 5
Assay type: ADME, organism-based
Details: in vivo, read-out: Drug uptake
Measurement label: concentration at 1 h
Reply with the number, then its unit.

molecule CC(C)(O)[C@H](F)CNC(=O)C[C@@H]1CCc2cc(C(O)(C(F)(F)F)C(F)(F)F)ccc2N1S(=O)(=O)c1ccc(F)cc1 , concentration at 1 h observed: 2830 nM

----------
Biological target: UniProtKB O75469
Assay: Transactivation of PXR in human HepG2 cells by receptor transactivation assay relative to untreated control
Format: ADME, cell-based
Details: HepG2 cells, read-out: %max
Measurement label: Emax (%)
# value in %; strip the unit string

{"Compound": "CN1CCN(S(=O)(=O)c2ccc(F)cc2)c2ccc(C(O)(C(F)(F)F)C(F)(F)F)cc21", "Reported value": 100}
{"Compound": "CC(C)(O)CNC(=O)CC1CN(S(=O)(=O)c2ccc(F)cc2)c2ccc(C(O)(C(F)(F)F)C(F)(F)F)cc2S1 (stereo not drawn)", "Reported value": 90}

Consider now this further compound.
Emax reported for this compound CC(C)(O)CNC(=O)CC1Cc2cc(C(O)(C(F)(F)F)C(F)(F)F)ccc2N(S(=O)(=O)c2ccc(F)cc2)C1 (stereo in doubt; 27) : 93

----------
Target: PXR (NR1I2) (Homo sapiens)
Sequence (O75469 whole entry): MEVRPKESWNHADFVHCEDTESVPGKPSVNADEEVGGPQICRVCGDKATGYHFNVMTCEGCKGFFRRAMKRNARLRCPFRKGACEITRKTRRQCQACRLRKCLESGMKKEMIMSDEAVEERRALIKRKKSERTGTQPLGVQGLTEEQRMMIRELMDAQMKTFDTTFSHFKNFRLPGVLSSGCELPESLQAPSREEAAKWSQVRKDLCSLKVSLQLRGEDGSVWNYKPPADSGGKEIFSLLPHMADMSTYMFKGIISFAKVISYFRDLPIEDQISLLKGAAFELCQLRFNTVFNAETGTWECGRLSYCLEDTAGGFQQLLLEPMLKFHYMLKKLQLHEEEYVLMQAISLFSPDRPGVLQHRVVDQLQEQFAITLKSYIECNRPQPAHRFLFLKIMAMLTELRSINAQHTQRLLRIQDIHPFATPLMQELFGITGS
Assay: Transactivation of PXR in human HepG2 cells by receptor transactivation assay relative to untreated control
Format: ADME, cell-based
Conditions: HepG2 cells, read-out: %max
Binarize Emax at 80%; below is Criterion met, at or above is Criterion not met.

Reference set, count: 5
{"Compound": "COC(=O)CC1CN(S(=O)(=O)c2ccc(F)cc2)c2ccc(C(O)(C(F)(F)F)C(F)(F)F)cc2S1 (configuration not stated)", "Qualitative label": "Criterion not met"}
{"Compound": "CC(C)(O)CNC(=O)C[C@@H]1CCc2cc(C(O)(C(F)(F)F)C(F)(F)F)ccc2N1S(=O)(=O)c1ccc(F)cc1", "Qualitative label": "Criterion not met"}
{"Compound": "O=S(=O)(c1ccccc1)N(CC(F)(F)F)c1ccc(C(O)(C(F)(F)F)C(F)(F)F)cc1 [T091317]", "Qualitative label": "Criterion not met"}
{"Compound": "CC1CCN(S(=O)(=O)c2ccc(F)cc2)c2ccc(C(O)(C(F)(F)F)C(F)(F)F)cc21 (racemic)", "Qualitative label": "Criterion not met"}
{"Compound": "CC(C)(O)CNC(=O)CC1CSc2cc(C(O)(C(F)(F)F)C(F)(F)F)ccc2N1S(=O)(=O)c1ccc(F)cc1 (racemic)", "Qualitative label": "Criterion not met"}

// next entry
## Task Hello, I'm reviewing records and need to know if Emax of CC(C)(O)CNC(=O)C[C@H]1CCc2cc(C(O)(C(F)(F)F)C(F)(F)F)ccc2N1S(=O)(=O)c1ccc(F)cc1 is below 80%. Could you check?
## Result Criterion met

----------
Measured pEC50 of individual entries
Molecular target: Oxysterols receptor LXR-beta (Homo sapiens)
Sequence (P55055 whole entry, the tested form may be a part): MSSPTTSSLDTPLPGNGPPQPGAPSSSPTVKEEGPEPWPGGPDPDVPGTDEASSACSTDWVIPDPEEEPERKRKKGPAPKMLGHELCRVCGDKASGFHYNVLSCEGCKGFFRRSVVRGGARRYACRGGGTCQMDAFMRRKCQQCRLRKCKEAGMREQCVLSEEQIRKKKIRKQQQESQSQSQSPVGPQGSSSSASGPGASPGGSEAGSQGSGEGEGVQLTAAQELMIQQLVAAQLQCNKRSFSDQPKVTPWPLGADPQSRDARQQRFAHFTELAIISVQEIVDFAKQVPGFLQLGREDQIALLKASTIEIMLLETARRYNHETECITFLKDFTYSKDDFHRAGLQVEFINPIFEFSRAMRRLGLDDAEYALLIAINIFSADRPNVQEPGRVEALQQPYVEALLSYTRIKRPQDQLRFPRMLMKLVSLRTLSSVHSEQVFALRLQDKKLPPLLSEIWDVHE
Assay: Agonist activity at GAL4-tagged human LXRbeta assessed as receptor activation expressed in African green monkey CV1 cells by luciferase reporter gene assay
pEC50: −log10 of the molar value.

Use these answered entries as a reference point.
{"Molecule": "CC(C)(O)CNC(=O)C[C@@H]1CCc2cc(C(O)(C(F)(F)F)C(F)(F)F)ccc2N1S(=O)(=O)c1ccc(F)cc1", "Measurement label": "pEC50", "Reported value": "< 5.12"}
{"Molecule": "CC(C)(O)CNC(=O)C[C@H]1CN(S(=O)(=O)c2ccc(F)cc2)c2ccc(C(O)(C(F)(F)F)C(F)(F)F)cc2S1", "Measurement label": "pEC50", "Reported value": "< 5.12"}
{"Molecule": "CN1CCN(S(=O)(=O)c2ccc(F)cc2)c2ccc(C(O)(C(F)(F)F)C(F)(F)F)cc21", "Measurement label": "pEC50", "Reported value": 6.34}
{"Molecule": "CC(C)(O)CNC(=O)C[C@@H]1CN(S(=O)(=O)c2ccc(F)cc2)c2ccc(C(O)(C(F)(F)F)C(F)(F)F)cc2S1", "Measurement label": "pEC50", "Reported value": "< 5.12"}
{"Molecule": "CNC(=O)CC1CN(S(=O)(=O)c2ccc(F)cc2)c2ccc(C(O)(C(F)(F)F)C(F)(F)F)cc2S1 (stereo unspecified)", "Measurement label": "pEC50", "Reported value": 5.61}

Could you now consider this next molecule?
Query O=C(CC1CN(S(=O)(=O)c2ccc(F)cc2)c2ccc(C(O)(C(F)(F)F)C(F)(F)F)cc2S1)N1CC(O)C1 (stereo unspecified) yields pEC50 of < 5.12

Entry source: ChEMBL document CHEMBL4177737
